# Tested on: RXF 393 renal
# assay_procedure: NCI tumour cell line growth inhibition, 48 h
assay_endpoint: GI50

I'm curious: which GI50 was measured for C#Cc1c(I)n(C2OC(CO[Si](C)(C)C(C)(C)C)C3OC(C)(C)OC32)c(=O)[nH]c1=O (centres undefined) tested on RXF 393 renal?
3.68 µM

###

# Test system: NCI-H23 lung
# assay_procedure: NCI tumour cell line growth inhibition, 48 h
assay_endpoint: GI50

Solved cases below.
C[C@]12CC[C@@H]3c4cc(OCC(F)(F)F)c(O)cc4/C(=N/O)C[C@H]3[C@@H]1CC[C@@H]2O    0.0787 µM
Cc1ccc2[nH]c(O)c(N=Nc3ccc(S(N)(=O)=O)cc3)c2c1    > 21.5 µM
CCn1c(SCc2ccc(C)cc2)nnc1-c1nn(-c2ccc(Cl)cc2Cl)c(-c2ccc(Cl)cc2)c1C    2.24 µM
COc1ccc(CCN2COc3c([C@@H](C)CCC=C(C)C)ccc(C)c3C2)cc1OC    2.55 µM
COc1cccc(C#Cc2ccccc2C#CCCCCO)c1    12.5 µM
Cc1ccc(-c2nc3ccc(Cl)cc3c(=O)n2N2C(=O)CSC2c2ccccc2Cl)cc1 (centres undefined)    > 100 µM
O=c1c2ccccc2c(=O)c2c1[nH]c1c(-c3ccccc3)c(-c3ccccc3)c(=O)c12    3.72 µM
CC(CO)(CO)NCCCCn1ccc2c1C(=O)c1c(c(O)c3ccccc3c1O)C2=O    15.8 µM
O=C(/C=C\c1ccc(NCc2ccc(C(=O)O)cc2)cc1)CCl    15.5 µM
CN(CCC#N)c1ccc(/C=C(\C#N)c2ccc(Br)cc2)cc1    > 100 µM

Consider now this further compound.
Quick one: GI50 of COc1ccc(-c2nn(-c3ccc(NC(=O)Nc4cc(C(F)(F)F)cc(C(F)(F)F)c4)cc3)cc2-c2ccncc2)cc1Cl ?
2.78 µM
